- Test system: IFN induction in dsDNA-stimulated human whole blood
- testProtocol: Human whole blood assay, dsDNA transfection, IFNα2a production (hWB IC50);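 further: cGAS pathway activity, IFNα2a in plasma by MSD immunoassay after 22 h at 37 °C, 8 concentrations up to 10 µM in 0.1% DMSO, DMSO controls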
- Format: cell-based
measurementType: IC50 (nM)
Answers are plain numbers, in nM.

# structureString, readoutUnit, IC50
rows = [
    ("C[C@H]1COCC[C@]1(F)c1cc(-c2cccc(N(C)C)c2)cnc1O[C@H]1C[C@@H](C(=O)O)N(c2nc(C(F)F)nc3c2oc2ccccc23)C1", "nM", 75),
]

# per-item lookup of IC50; items listed below
1. C#Cc1cnc(O[C@H]2C[C@@H](C(=O)O)N(c3nc(C(F)F)nc4c3oc3ccccc34)C2)c([C@]2(F)CCS(=O)(=O)C[C@H]2C)c1
2. C#Cc1cnc(O[C@H]2C[C@@H](C(=O)O)N(c3nc(C(F)F)nc4c3oc3ccccc34)C2)c([C@@]2(F)CCOC[C@@H]2C)c1
3. C#Cc1cnc(O[C@H]2C[C@@H](C(=O)OC)N(c3nc(C(F)(F)F)nc4c3oc3ccccc34)C2)c([C@@]2(F)CCS(=O)(=O)C[C@@H]2C)c1

[A]
1: 124; 2: 103; 3: 67

Sourced from patent US12043625B2
